Target: Bem1-2, P29366
Sequence (P29366 139-227): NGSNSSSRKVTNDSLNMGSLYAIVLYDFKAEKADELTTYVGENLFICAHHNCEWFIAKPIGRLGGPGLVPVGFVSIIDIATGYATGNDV
Test: SPOT array
Conditions: median of control spots 4347
READOUT_TYPE: SPOT intensity

I. NILKRRPLKLEAPSK
II. EQEEIAPSLPSRNSI
Which of these two has the smaller recorded SPOT intensity: I or II ? In your reply, give the label of the chosen option.
I

P. RRRRRPHRIERPLSN
Q. ATNVPVAPPPPPASL
R. APPLPPTAPPPPSLP
Put the items in order so that reported SPOT intensity rises from first to last. A ranking is expressed here by listing the labels in the requested order.
Q, P, R

1. VAPPPLPNRQLPNLD
2. PLRRTVMSLPGNHDI
// which entry has the larger SPOT intensity value, 1 or 2 ? Return value: the label identifying the chosen record.
2
(2: 6, 1: 0)

1. FPGKKSPRLPHRNKK
2. VLRFLGFPLPIFEKG
Looking at recorded values for SPOT intensity, does 1 or 2 come in lower? Could you answer with the label of the item you picked?
1
(1: 0, 2: 2)

I. TSFKGRPKPPKTLKH
II. VQKRKLPLPGSIASA
III. RLSFFFPLDPAYIRN
IV. YRRKSIPFAPHQITA
Order by SPOT intensity, ascending. Would you mind listing the labels in the order asked for?
I, II, IV, III

P. KKIRLIFTYPSTVGR
Q. FYHRPAPKPPVTKKV
Pick the one with the larger SPOT intensity: P vs Q Lab note: record the label of whichever item you select.
Q
(Q: 4210, P: 0)

a. SRSKPLPLTPNSKYN
b. EEEEEHPPLPARRKS
c. IVNKPLPPLPVAGSS
d. TTNRGPPPLPPRANV
e. FIRKRAPTPPAPSRS
Give the ascending ranking of the items by reported SPOT intensity. Please list the labels in the order you were asked to rank them.
c, a, b, d, e
(c: 0, a: 1, b: 3, d: 11, e: 800)

a. VPVAPPPPPASLGQS
b. RKRRTHLRLPLIRSN
c. FFRRSELYLPNSSKA
d. NTMKKRPAPPSLPSL
e. RHLKLVPSTPMDIPW
Order each entry by recorded SPOT intensity, climbing from the minimum. Provide the labels, sequenced as the question asks.
b, a, c, d, e
